This listing pairs compounds with measured log PEXP (Mean ± SD).
assay: Experimental lipophilicity from HPLC and TLC methods combined (standardization procedure); format: physicochemical; details: mean over all HPLC and TLC systems
measured.parameter: log PEXP (Mean ± SD)

compound: OC[C@H]1O[C@@H](c2ccc(Cl)c(Cc3ccc(O[C@H]4CCOC4)cc3)c2)[C@H](O)[C@@H](O)[C@@H]1O [EMPA, empagliflozin]
observed.result: 2.28
//
compound: Cc1ccc([C@@H]2O[C@H](CO)[C@@H](O)[C@H](O)[C@H]2O)cc1Cc1ccc(-c2ccc(F)cc2)s1 [CANA, canagliflozin]
observed.result: 3.99
//
compound: CCOc1ccc(Cc2cc([C@@H]3O[C@H](SC)[C@@H](O)[C@H](O)[C@H]3O)ccc2Cl)cc1 [SOTA, sotagliflozin]
observed.result: 3.94
//
compound: CCOc1ccc(Cc2cc([C@@H]3O[C@H](CO)[C@@H](O)[C@H](O)[C@H]3O)ccc2Cl)cc1 [DAPA, dapagliflozin]
observed.result: 2.83
//
compound: CCOc1ccc(Cc2cc([C@]34OC[C@](CO)(O3)[C@@H](O)[C@H](O)[C@H]4O)ccc2Cl)cc1 [ERTU, ertugliflozin]
observed.result: 3.04

###

experiment: TLC lipophilicity (RMW, standardized to log PEXP); format: physicochemical; conditions: TLC.RP8/MeOH
measured.parameter: chromatographic logP

structure.notation: CCOc1ccc(Cc2cc([C@@H]3O[C@H](SC)[C@@H](O)[C@H](O)[C@H]3O)ccc2Cl)cc1
observed.result: 4.26
--
structure.notation: CCOc1ccc(Cc2cc([C@]34OC[C@](CO)(O3)[C@@H](O)[C@H](O)[C@H]4O)ccc2Cl)cc1
observed.result: 3.54
--
structure.notation: OC[C@H]1O[C@@H](c2ccc(Cl)c(Cc3ccc(O[C@H]4CCOC4)cc3)c2)[C@H](O)[C@@H](O)[C@@H]1O
observed.result: 2.48
--
structure.notation: Cc1ccc([C@@H]2O[C@H](CO)[C@@H](O)[C@H](O)[C@H]2O)cc1Cc1ccc(-c2ccc(F)cc2)s1
observed.result: 4.07

###

assay: HPLC lipophilicity (log kW, standardized to log PEXP); format: physicochemical; conditions: LiChrospher CN HPLC column (125 × 4.0 mm, 5 µm), HPLC.CN/MeOH (CN column, methanol modifier)
This listing pairs compounds with measured chromatographic logP.
measured.parameter: chromatographic logP

compound: Cc1ccc([C@@H]2O[C@H](CO)[C@@H](O)[C@H](O)[C@H]2O)cc1Cc1ccc(-c2ccc(F)cc2)s1 [CANA, canagliflozin]
observed.result: 4.91

compound: CCOc1ccc(Cc2cc([C@@H]3O[C@H](CO)[C@@H](O)[C@H](O)[C@H]3O)ccc2Cl)cc1 [DAPA, dapagliflozin]
observed.result: 3.08

compound: CCOc1ccc(Cc2cc([C@]34OC[C@](CO)(O3)[C@@H](O)[C@H](O)[C@H]4O)ccc2Cl)cc1 [ERTU, ertugliflozin]
observed.result: 3.36

###

assay: TLC lipophilicity (RMW, standardized to log PEXP); format: physicochemical; conditions: TLC.RP18/ACN
This listing pairs molecules with measured chromatographic logP.
measured.parameter: chromatographic logP

structure.notation: CCOc1ccc(Cc2cc([C@@H]3O[C@H](SC)[C@@H](O)[C@H](O)[C@H]3O)ccc2Cl)cc1
measured.parameter: chromatographic logP
observed.result: 3.69
//
structure.notation: CCOc1ccc(Cc2cc([C@@H]3O[C@H](CO)[C@@H](O)[C@H](O)[C@H]3O)ccc2Cl)cc1
measured.parameter: chromatographic logP
observed.result: 2.22
//
structure.notation: Cc1ccc([C@@H]2O[C@H](CO)[C@@H](O)[C@H](O)[C@H]2O)cc1Cc1ccc(-c2ccc(F)cc2)s1
measured.parameter: chromatographic logP
observed.result: 3.47
//
structure.notation: CCOc1ccc(Cc2cc([C@]34OC[C@](CO)(O3)[C@@H](O)[C@H](O)[C@H]4O)ccc2Cl)cc1
measured.parameter: chromatographic logP
observed.result: 3.13

###

This listing pairs compounds with measured chromatographic logP.
assay: TLC lipophilicity (RMW, standardized to log PEXP); format: physicochemical; details: TLC.RP8/ACN

structure.notation: CCOc1ccc(Cc2cc([C@@H]3O[C@H](SC)[C@@H](O)[C@H](O)[C@H]3O)ccc2Cl)cc1
chromatographic logP: 4.08
//
structure.notation: CCOc1ccc(Cc2cc([C@@H]3O[C@H](CO)[C@@H](O)[C@H](O)[C@H]3O)ccc2Cl)cc1
chromatographic logP: 2.3
//
structure.notation: Cc1ccc([C@@H]2O[C@H](CO)[C@@H](O)[C@H](O)[C@H]2O)cc1Cc1ccc(-c2ccc(F)cc2)s1
chromatographic logP: 3.55
//
structure.notation: OC[C@H]1O[C@@H](c2ccc(Cl)c(Cc3ccc(O[C@H]4CCOC4)cc3)c2)[C@H](O)[C@@H](O)[C@@H]1O
chromatographic logP: 1.68

###

Assay: HPLC lipophilicity (log kW, standardized to log PEXP)
Format: physicochemical
Settings: LiChrospher RP18 HPLC column (125 × 4.0 mm, 5 µm), HPLC.RP18/ACN
Experimental: All experiments were performed using an HPLC system equipped with a solvent delivery pump 515 and a UV/VIS detector 2487 from Waters UK Sales (Elstree, UK), a degasser 964 from Jasco Inc. (Easton, MD, USA), and LiChrospher RP18, RP8 and CN columns (125 × 4.0 mm, 5 µm) from Merck. […] The analyzed drugs and six reference substances were dissolved in methanol to obtain concentrations of 0.1 mg/mL and injected into the column in the volume of 20 µL. […]

compound: OC[C@H]1O[C@@H](c2ccc(Cl)c(Cc3ccc(O[C@H]4CCOC4)cc3)c2)[C@H](O)[C@@H](O)[C@@H]1O [EMPA, empagliflozin]
chromatographic logP: 1.35
--
compound: CCOc1ccc(Cc2cc([C@@H]3O[C@H](SC)[C@@H](O)[C@H](O)[C@H]3O)ccc2Cl)cc1 [SOTA, sotagliflozin]
chromatographic logP: 3.4
--
compound: CCOc1ccc(Cc2cc([C@@H]3O[C@H](CO)[C@@H](O)[C@H](O)[C@H]3O)ccc2Cl)cc1 [DAPA, dapagliflozin]
chromatographic logP: 2

###

This listing pairs compounds with measured chromatographic logP.
test: TLC lipophilicity (RMW, standardized to log PEXP); assay type: physicochemical; conditions: TLC.CN/ACN

compound: OC[C@H]1O[C@@H](c2ccc(Cl)c(Cc3ccc(O[C@H]4CCOC4)cc3)c2)[C@H](O)[C@@H](O)[C@@H]1O [EMPA, empagliflozin]
chromatographic logP: 1.87
--
compound: Cc1ccc([C@@H]2O[C@H](CO)[C@@H](O)[C@H](O)[C@H]2O)cc1Cc1ccc(-c2ccc(F)cc2)s1 [CANA, canagliflozin]
chromatographic logP: 2.4
--
compound: CCOc1ccc(Cc2cc([C@@H]3O[C@H](CO)[C@@H](O)[C@H](O)[C@H]3O)ccc2Cl)cc1 [DAPA, dapagliflozin]
chromatographic logP: 2.03
--
compound: CCOc1ccc(Cc2cc([C@]34OC[C@](CO)(O3)[C@@H](O)[C@H](O)[C@H]4O)ccc2Cl)cc1 [ERTU, ertugliflozin]
chromatographic logP: 2.01
--
compound: CCOc1ccc(Cc2cc([C@@H]3O[C@H](SC)[C@@H](O)[C@H](O)[C@H]3O)ccc2Cl)cc1 [SOTA, sotagliflozin]
chromatographic logP: 2.32

###

test system: SGLT2; experiment: SGLT2 inhibition (literature); format: biochemical; conditions: pIC50 (SGLT2, literature) minus mean log PEXP
Response key: YES means LLE (lipophilic ligand efficiency) >= 5; NO means LLE (lipophilic ligand efficiency) < 5.

structure.notation: CCOc1ccc(Cc2cc([C@@H]3O[C@H](CO)[C@@H](O)[C@H](O)[C@H]3O)ccc2Cl)cc1
assigned.category: YES
//
structure.notation: CCOc1ccc(Cc2cc([C@]34OC[C@](CO)(O3)[C@@H](O)[C@H](O)[C@H]4O)ccc2Cl)cc1
assigned.category: YES
//
structure.notation: Cc1ccc([C@@H]2O[C@H](CO)[C@@H](O)[C@H](O)[C@H]2O)cc1Cc1ccc(-c2ccc(F)cc2)s1
assigned.category: NO
//
structure.notation: CCOc1ccc(Cc2cc([C@@H]3O[C@H](SC)[C@@H](O)[C@H](O)[C@H]3O)ccc2Cl)cc1
assigned.category: NO
//
structure.notation: OC[C@H]1O[C@@H](c2ccc(Cl)c(Cc3ccc(O[C@H]4CCOC4)cc3)c2)[C@H](O)[C@@H](O)[C@@H]1O
assigned.category: YES

###

assay: TLC lipophilicity (RMW, standardized to log PEXP); assay type: physicochemical; conditions: TLC.RP18/MeOH
This listing pairs compounds with measured chromatographic logP.

structure.notation: CCOc1ccc(Cc2cc([C@@H]3O[C@H](SC)[C@@H](O)[C@H](O)[C@H]3O)ccc2Cl)cc1
chromatographic logP: 4.5

structure.notation: CCOc1ccc(Cc2cc([C@@H]3O[C@H](CO)[C@@H](O)[C@H](O)[C@H]3O)ccc2Cl)cc1
chromatographic logP: 3.58

structure.notation: Cc1ccc([C@@H]2O[C@H](CO)[C@@H](O)[C@H](O)[C@H]2O)cc1Cc1ccc(-c2ccc(F)cc2)s1
chromatographic logP: 4.43

structure.notation: CCOc1ccc(Cc2cc([C@]34OC[C@](CO)(O3)[C@@H](O)[C@H](O)[C@H]4O)ccc2Cl)cc1
chromatographic logP: 3.27

structure.notation: OC[C@H]1O[C@@H](c2ccc(Cl)c(Cc3ccc(O[C@H]4CCOC4)cc3)c2)[C@H](O)[C@@H](O)[C@@H]1O
chromatographic logP: 2.99
